system-under-test: CCK receptor (pancreas) (Rattus norvegicus, UniProt P30551)
Construct: The whole pancreas was dissected free of fat tissue and was homogenized
Sequence (P30551 whole entry): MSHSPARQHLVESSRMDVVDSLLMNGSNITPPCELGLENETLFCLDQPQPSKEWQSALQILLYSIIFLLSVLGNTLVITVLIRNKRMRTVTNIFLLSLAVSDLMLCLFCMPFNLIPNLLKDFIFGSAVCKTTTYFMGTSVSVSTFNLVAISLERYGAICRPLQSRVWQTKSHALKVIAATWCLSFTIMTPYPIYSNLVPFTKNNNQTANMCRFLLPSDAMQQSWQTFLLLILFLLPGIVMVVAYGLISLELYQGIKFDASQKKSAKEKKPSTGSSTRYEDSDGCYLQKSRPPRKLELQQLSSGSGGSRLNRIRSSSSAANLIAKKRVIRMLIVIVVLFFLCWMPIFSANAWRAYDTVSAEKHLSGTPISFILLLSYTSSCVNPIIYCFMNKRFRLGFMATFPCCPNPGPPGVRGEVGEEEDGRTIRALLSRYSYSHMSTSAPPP
assay-comment: CCK Receptor Binding (Pancreas), inhibition of 125I-CCK-8 binding
condition-description: rat pancreas membranes; 50 pM 125I-CCK-8; pH 6.5, 25° C., 2 hours
observable: pIC50
Scale for pIC50: -log10 of concentration given in mol/L; no unit attached.

compound: CC(C)CN1C(=O)C(NC(=O)Nc2cccc(-c3nn[nH]n3)c2)N=C(c2ccc(=O)[nH]c2)c2ccccc21 (racemic)
experimental-result: 5.57

Please examine the following record next.
Q: Quick one: pIC50 of CC(C)CN1C(=O)C(NC(=O)Nc2cccc(-c3nn[nH]n3)c2)N=C(c2cc[nH]c(=O)c2)c2ccccc21 (racemic) ?
Result: 5.47
